Values from paper PMC12718081

Test system: adult schistosomes (male and female worms)
method: Adult worm ex vivo high-content image-based motility assay
Assay type: cell-based, Schistosoma mansoni
test-context: Schistosoma mansoni, 48 h, male adult worms, 48 h; single experiment or geometric mean; read-out: Male worm motility inhibition (EC50)
test-readout: EC50

* O=C(C1CCCCC1)N1CC(=O)N2CCc3ccc([N+](=O)[O-])cc3C2C1 (stereo not shown) | 15.9 µM
* O=C(C1CCCCC1)N1CC(=O)N2CCc3ccccc3C2C1 (stereo not shown) [PZQ, Praziquantel, reference compound] | 0.25 µM
* CCCc1cn(-c2ccc3c(c2)C2CN(C(=O)C4CCCCC4)CC(=O)N2CC3)nn1 (stereo not shown) | 1.9 µM
* O=C(C1CCCCC1)N1CC(=O)N2CCc3ccc(-n4cc(C5=CCCCC5)nn4)cc3C2C1 (stereo not shown) | 49.2 µM
* O=C(C1CCCCC1)N1CC(=O)N2CCc3ccc(-n4cc(COc5ccccc5)nn4)cc3C2C1 (stereo not shown) | > 100 µM

Q: Quick one: EC50 for Nc1ccc2c(c1)C1CN(C(=O)C3CCCCC3)CC(=O)N1CC2 (stereo not shown) ?
Result: 4.5 µM

Q: Can you look up the measured EC50 of [N-]=[N+]=Nc1ccc2c(c1)C1CN(C(=O)C3CCCCC3)CC(=O)N1CC2 (stereo not shown) for me?
Result: 1.6 µM
